Ref: the supplement of paper PMC11061612

Test system: KYAE-1 (Esophageal Adenocarcinoma)
Assay: combination Emax (second highest fraction inhibited in the dose matrix, 72 h); higher = more inhibition; extreme values may be limits of the assay

- compound: "CN(CCO)CC[C@H](CSc1ccccc1)Nc1ccc(S(=O)(=O)NC(=O)c2ccc(N3CCC([C@@H](O)c4ccccc4-c4ccc(Cl)cc4)CC3)cc2)cc1S(=O)(=O)C(F)(F)F [AZD4320] + CN(C)CCCOc1ccc(-c2ccc3ncc4c(c3c2)n(C2CCOCC2)c(=O)n4C)cn1 [AZD0156] (first compound max 1 µM, 7x7, partner max 1 µM)"
  combination Emax: 0.338
- compound: "Cc1c2c(nn1C)CSCc1cc(n(C)n1)CSc1cc(c3ccccc3c1)OCCCc1c(C(=O)O)n(C)c3c-2c(Cl)ccc13 [AZD5991] + CCN(CCO)CCCOc1ccc2c(Nc3cc(CC(=O)Nc4cccc(F)c4)[nH]n3)ncnc2c1 [AZD2811] (first compound max 1 µM, 7x7, partner max 1 µM)"
  combination Emax: 0.296
- compound: "Cc1c2c(nn1C)CSCc1cc(n(C)n1)CSc1cc(c3ccccc3c1)OCCCc1c(C(=O)O)n(C)c3c-2c(Cl)ccc13 [AZD5991] + Cc1cc2ncnn2cc1Nc1ncc2c(n1)n(C1CCOCC1)c(=O)n2C [AZD7648] (first compound max 1 µM, 7x7, partner max 10 µM)"
  combination Emax: 0.194
- compound: "O=C(c1cc(Cc2n[nH]c(=O)c3ccccc23)ccc1F)N1CCN(C(=O)C2CC2)CC1 [Olaparib] + CN(CC[C@H](CSC1=CC=CC=C1)NC2=C(C=C(C=C2)S(=O)(=O)NC(=O)C3=CC=C(C=C3)N4CCC(CC4)[C@H](C5=CC=CC=C5C6=CC=C(C=C6)Cl)O)S(=O)(=O)C(F)(F)F)CCO [AZD4320] (first compound max 10 µM, 7x7, partner max 1 µM)"
  combination Emax: 0.587
- compound: "C[C@@H]1COCCN1c1cc(C2([S@](C)(=N)=O)CC2)nc(-c2ccnc3[nH]ccc23)n1 [AZD6738] + Nc1ccn([C@@H]2O[C@H](CO)[C@@H](O)C2(F)F)c(=O)n1 [Gemcitabine] (first compound max 10 µM, 7x7, partner max 0.3 µM)"
  combination Emax: 0.0714
- compound: "CCN(CCO)CCCOc1ccc2c(Nc3cc(CC(=O)Nc4cccc(F)c4)[nH]n3)ncnc2c1 [AZD2811] + O=C(c1cc(Cc2n[nH]c(=O)c3ccccc23)ccc1F)N1CCN(C(=O)C2CC2)CC1 [Olaparib] (first compound max 1 µM, 7x7, partner max 10 µM)"
  combination Emax: 0.208
- compound: "Cc1c2c(nn1C)CSCc1cc(n(C)n1)CSc1cc(c3ccccc3c1)OCCCc1c(C(=O)O)n(C)c3c-2c(Cl)ccc13 [AZD5991] + C[C@@H](Nc1cc(F)cc(F)c1)c1cc(C(=O)N(C)C)cc2c(=O)cc(N3CCOCC3)oc12 [AZD8186] (first compound max 1 µM, 7x7, partner max 3 µM)"
  combination Emax: 0.209

---

Test system: NCI-H524 (Small Cell Lung Carcinoma)
Experiment: Bliss excess, mean over the matrix (fraction); higher = more synergy
Reported Bliss excess is given for each of the following molecules.
endpoint-label: Bliss excess

- molecule: "COc1cccc(OCCCN)c1-c1cc(Nc2cnc(C#N)cn2)n[nH]1 [Prexasertib] + CCc1c2c(nc3ccc(O)cc13)-c1cc3c(c(=O)n1C2)COC(=O)[C@]3(O)CC [SN-38] (first compound max 1 µM, 7x7, partner max 0.3 µM)"
  result: 0.0554
- molecule: "Cc1cc2ncnn2cc1Nc1ncc2c(n1)n(C1CCOCC1)c(=O)n2C [AZD7648] + C=CCn1c(=O)c2cnc(Nc3ccc(N4CCN(C)CC4)cc3)nc2n1-c1cccc(C(C)(C)O)n1 [AZD1775] (first compound max 10 µM, partner max 1 µM)"
  result: -0.0254
- molecule: "CN(CCO)CC[C@H](CSc1ccccc1)Nc1ccc(S(=O)(=O)NC(=O)c2ccc(N3CCC([C@@H](O)c4ccccc4-c4ccc(Cl)cc4)CC3)cc2)cc1S(=O)(=O)C(F)(F)F [AZD4320] + Cc1cc2ncnn2cc1Nc1ncc2c(n1)n(C1CCOCC1)c(=O)n2C [AZD7648] (first compound max 1 µM, 7x7, partner max 10 µM)"
  result: -0.044
- molecule: "Cc1cc2ncnn2cc1Nc1ncc2c(n1)n(C1CCOCC1)c(=O)n2C [AZD7648] + CCN(CCO)CCCOc1ccc2c(Nc3cc(CC(=O)Nc4cccc(F)c4)[nH]n3)ncnc2c1 [AZD2811] (first compound max 10 µM, 7x7, partner max 1 µM)"
  result: -0.0043

---

System: SNU-449 (Hepatocellular Carcinoma)
Test: combination Emax (second highest fraction inhibited in the dose matrix, 72 h); higher = more inhibition; extreme values may be limits of the assay
Respond with Met for combination Emax values of 0.2 and above, Not met for values below.

- compound: "Cc1cc2ncnn2cc1Nc1ncc2c(n1)n(C1CCOCC1)c(=O)n2C [AZD7648] + O=C(c1cc(Cc2n[nH]c(=O)c3ccccc23)ccc1F)N1CCN(C(=O)C2CC2)CC1 [Olaparib] (first compound max 10 µM, 7x7, partner max 10 µM)"
  subject-of-test: "SNU-449 (Hepatocellular Carcinoma)"
  qualitative-label: "Not met"
- compound: "C=CCn1c(=O)c2cnc(Nc3ccc(N4CCN(C)CC4)cc3)nc2n1-c1cccc(C(C)(C)O)n1 [AZD1775] + C1CN(CCC1(C(=O)N[C@@H](CCO)C2=CC=C(C=C2)Cl)N)C3=NC=NC4=C3C=CN4 [Capivasertib] (first compound max 3 µM, partner max 3 µM)"
  subject-of-test: "SNU-449 (Hepatocellular Carcinoma)"
  qualitative-label: "Met"
- compound: "NC1(C(=O)N[C@@H](CCO)c2ccc(Cl)cc2)CCN(c2ncnc3[nH]ccc23)CC1 [Capivasertib] + C[C@@H]1COCCN1C2=NC(=NC(=C2)C3(CC3)[S@](=N)(=O)C)C4=C5C=CNC5=NC=C4 [AZD6738] (first compound max 10 µM, 7x7, partner max 10 µM)"
  subject-of-test: "SNU-449 (Hepatocellular Carcinoma)"
  qualitative-label: "Met"
- compound: "Cc1c2c(nn1C)CSCc1cc(n(C)n1)CSc1cc(c3ccccc3c1)OCCCc1c(C(=O)O)n(C)c3c-2c(Cl)ccc13 [AZD5991] + CC1(C)CCC(CN2CCN(c3ccc(C(=O)NS(=O)(=O)c4ccc(NCC5CCOCC5)c([N+](=O)[O-])c4)c(Oc4cnc5[nH]ccc5c4)c3)CC2)=C(c2ccc(Cl)cc2)C1 [Venetoclax] (first compound max 1 µM, 7x7, partner max 1 µM)"
  subject-of-test: "SNU-449 (Hepatocellular Carcinoma)"
  qualitative-label: "Met"
- compound: "CN(CCO)CC[C@H](CSc1ccccc1)Nc1ccc(S(=O)(=O)NC(=O)c2ccc(N3CCC([C@@H](O)c4ccccc4-c4ccc(Cl)cc4)CC3)cc2)cc1S(=O)(=O)C(F)(F)F [AZD4320] + Cc1cc2ncnn2cc1Nc1ncc2c(n1)n(C1CCOCC1)c(=O)n2C [AZD7648] (first compound max 1 µM, 7x7, partner max 10 µM)"
  subject-of-test: "SNU-449 (Hepatocellular Carcinoma)"
  qualitative-label: "Not met"
- compound: "C[C@@H](Oc1cc(-c2cnn(C3CCNCC3)c2)cnc1N)c1c(Cl)ccc(F)c1Cl [Crizotinib] + CC1=C(C(=CC=C1)Cl)NC(=O)C2=CN=C(S2)NC3=CC(=NC(=N3)C)N4CCN(CC4)CCO [Dasatinib] (first compound max 10 µM, 7x7, partner max 2 µM)"
  subject-of-test: "SNU-449 (Hepatocellular Carcinoma)"
  qualitative-label: "Met"
- compound: "NC1(C(=O)N[C@@H](CCO)c2ccc(Cl)cc2)CCN(c2ncnc3[nH]ccc23)CC1 [Capivasertib] + CC(=O)c1c(C)c2cnc(Nc3ccc(N4CCNCC4)cn3)nc2n(C2CCCC2)c1=O [Palbociclib] (first compound max 10 µM, 7x7, partner max 10 µM)"
  subject-of-test: "SNU-449 (Hepatocellular Carcinoma)"
  qualitative-label: "Met"

---

Consider the following compounds and their measured Bliss excess readings.
Tested on: LNZTA3WT4 (Low Grade Glioma)
Assay: Bliss excess, mean over the matrix (fraction); higher = more synergy
endpoint-label: Bliss excess

- compound: "NC1(C(=O)N[C@@H](CCO)c2ccc(Cl)cc2)CCN(c2ncnc3[nH]ccc23)CC1 [Capivasertib] + CC(=O)c1c(C)c2cnc(Nc3ccc(N4CCNCC4)cn3)nc2n(C2CCCC2)c1=O [Palbociclib] (first compound max 10 µM, 7x7, partner max 10 µM)"
  endpoint-label: "Bliss excess"
  result: 0.0103
- compound: "C[C@@H](Oc1cc(-c2cnn(C3CCNCC3)c2)cnc1N)c1c(Cl)ccc(F)c1Cl [Crizotinib] + CC1=C(C(=CC=C1)Cl)NC(=O)C2=CN=C(S2)NC3=CC(=NC(=N3)C)N4CCN(CC4)CCO [Dasatinib] (first compound max 10 µM, 7x7, partner max 2 µM)"
  endpoint-label: "Bliss excess"
  result: 0.0429
